- tgt: recombinant human 5-HT5A receptor (Homo sapiens)
- Construct: expressed in transfected cells; host or cells: HEK-EBNA (Human Embryonic Kidney-EBNA) cells, transient cDNA expression; membranes
- protocol.description: [3H]LSD radioligand binding assay
- study.conditions: [3H]LSD (approximately 1 nM); membranes from transiently expressed 5-HT5A receptors in HEK-EBNA cells; Ki from IC50 by Cheng-Prussoff equation
- Experimental: A [^3H]LSD radioligand binding assay was used to determine the affinity of the compounds for the recombinant human 5-HT5A receptor, in membranes from transiently (cDNA) expressed 5-HT5A receptors in Human Embryonic Kidney-EBNA (HEK-EBNA) cells. […] Bound ligand was determined using a Packard Topcount scintillation counter. IC50 values were calculated using a non-linear curve fitting program and Ki values calculated using the Cheng-Prussoff equation.
reported.metric: Ki (nM)

Solved entries:
COc1cccc2c1C(Nc1ccc3cc(NC(=O)NC4CCN(C(C)C)CC4)ccc3n1)CO2 (racemic) [Example 180] ... 2.8
O=S(=O)(Nc1ccc2nc(N[C@@H]3CCc4ccccc43)ccc2c1)N1CCOCC1 [Example 76] ... 9.9
CN(C)S(=O)(=O)Nc1ccc2nc(N[C@@H]3CCc4ccccc43)ccc2c1 [Example 66] ... 5.6
COc1cccc2c1C(Nc1ccc3cc(NC(=O)N(C)C4CCN(C(C)C)CC4)ccc3n1)CC2 (racemic) [Example 179] ... 7.1

A. COc1cccc2c1C(Nc1ccc3cc(NC(=O)NC4CCN(C(=O)CC(F)(F)F)CC4)ccc3n1)CC2 (racemic) [Example 52]
B. COc1cccc2c1C(Nc1ccc3cc(NC(=O)NC(C)C)ccc3n1)CC2 (single isomer, unassigned; (-)) [Example 13]
C. COc1cccc2c1C(Nc1ccc3cc(NC(=O)NC(C)C)ccc3n1)CC2 (racemic) [Example 12]
hey, can you rank those compounds up there by Ki? biggest number first please Present the labels in the sequence the task asks for. A, C, B
(A: 7.5 nM, C: 1.5 nM, B: 0.9 nM)

###

- tgt: recombinant human 5-HT5A receptor (Homo sapiens, UniProt P47898)
- Construct: expressed in transfected cells; host or cells: HEK-EBNA (Human Embryonic Kidney-EBNA) cells, transient cDNA expression; membranes
- Sequence (P47898 whole entry): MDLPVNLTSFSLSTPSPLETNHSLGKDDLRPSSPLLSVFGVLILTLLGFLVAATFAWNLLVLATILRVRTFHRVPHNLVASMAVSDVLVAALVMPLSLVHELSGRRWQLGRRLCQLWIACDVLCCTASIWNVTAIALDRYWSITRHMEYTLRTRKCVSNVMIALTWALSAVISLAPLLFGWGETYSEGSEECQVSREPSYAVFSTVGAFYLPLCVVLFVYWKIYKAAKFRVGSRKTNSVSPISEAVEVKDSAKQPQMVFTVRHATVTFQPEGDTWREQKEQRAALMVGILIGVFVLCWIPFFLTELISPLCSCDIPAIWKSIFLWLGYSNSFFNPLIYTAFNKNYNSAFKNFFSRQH
- protocol.description: [3H]LSD radioligand binding assay
- study.conditions: [3H]LSD (approximately 1 nM); membranes from transiently expressed 5-HT5A receptors in HEK-EBNA cells; Ki from IC50 by Cheng-Prussoff equation
- Experimental: A [^3H]LSD radioligand binding assay was used to determine the affinity of the compounds for the recombinant human 5-HT5A receptor, in membranes from transiently (cDNA) expressed 5-HT5A receptors in Human Embryonic Kidney-EBNA (HEK-EBNA) cells. […] Bound ligand was determined using a Packard Topcount scintillation counter. IC50 values were calculated using a non-linear curve fitting program and Ki values calculated using the Cheng-Prussoff equation.
reported.metric: Ki (nM)

Solved entries:
COc1cccc2c1C(Nc1ccc3cc(NC(=O)NC4CCN(C)CC4)ccc3n1)CC2 (racemic) [Example 40] ... 2.2
COc1cccc2c1C(Nc1ccc3cc(NC(=O)CN4CCN(C)CC4)ccc3n1)CC2 (racemic) [Example 139] ... 4.4
O=C(Nc1ccc2nc(N[C@@H]3CCc4ccccc43)ccc2c1)NC1CC1 [Example 21] ... 3.9
COc1cccc2c1C(Nc1ccc3cc(NC(=O)NC4CCN(CCSC)CC4)ccc3n1)CC2 (racemic) [Example 51] ... 3.9
O=C(Nc1ccc2nc(N[C@@H]3CCc4ccccc43)ccc2c1)NC1CCCCC1 [Example 5] ... 2.9

I. COc1cc(C)cc2c1C(Nc1ccc3cc(NC(=O)NC(C)C)ccc3n1)CC2 (racemic) [Example 130]
II. O=C(Nc1ccc2nc(N[C@@H]3CCc4ccccc43)ccc2c1)NC1CCN(CCO)CC1 [Example 137]
Given the two records I and II , choose the one whose Ki value is lower. Bench note: the answer is the label of the chosen record. II
(II: 1.7 nM, I: 3.4 nM)

1. COCCN1CCC(NC(=O)Nc2ccc3nc(N[C@@H]4CCc5ccccc54)ccc3c2)CC1 [Example 43]
2. CC(C)N1CCC(NC(=O)Nc2ccc3nc(NC4CCc5cccc(F)c54)ccc3c2)CC1 (racemic) [Example 156]
Return label of the item with the larger Ki. Candidates: 1 , 2 . Bench note: the answer is the label of the chosen record. 2
(2: 3.8 nM, 1: 2.5 nM)

P. O=S(=O)(Nc1ccc2nc(N[C@@H]3CCc4ccccc43)ccc2c1)N1C[C@@H]2C[C@H]1CO2 [Example 88]
Q. O=C(Nc1ccc2nc(N[C@@H]3CCc4ccccc43)ccc2c1)NC1CCNCC1 [Example 39]
Given the two records P and Q , choose the one whose Ki value is lower. Bench note: the answer is the label of the chosen record. P
(P: 2.5 nM, Q: 3.9 nM)
